Entry source: the supplement of paper PMC10567573

B1: DYRK1B (parent)
chain: ARKYFERLPGGGWTLRRTKELRKD

Variants of: B1
protocol.summary: protein stability index of a GFP-peptide fusion (GPS, HEK-293T) (PSI 1-6); higher = more stable;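 further: lentivirally expressed fusions sorted by FACS into six bins by GFP to DsRed ratio, PSI derived from sequencing read proportions per bin multiplied by bin number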
measurement.setup: c terminus: a fixed tail appended
The variants listed here are annotated with their protein stability index.
Reply briefly: the number, and no unit.

Take a look at these entries with their results.
[
  {
    "residue.string": "ARTYFERLPGGGWTLRRTKELRKD [K3T]",
    "protein stability index": 3.55
  },
  {
    "residue.string": "ARKYFERLPGGGWTHRRTKELRKD [L15H]",
    "protein stability index": 3.85
  },
  {
    "residue.string": "ARKYFERLPGGNWTLRRTKELRKD [G12N]",
    "protein stability index": 2
  },
  {
    "residue.string": "ARKYFERLPGGGWTLRRYKELRKD [T18Y]",
    "protein stability index": 2.26
  },
  {
    "residue.string": "AMKYFERLPGGGWTLRRTKELRKD [R2M]",
    "protein stability index": 2.79
  }
]

# input May I ask what protein stability index has been recorded for ARKYFERLPGGGATLRRTKELRKD [W13A] ?
# output 3.72

# input May I ask what protein stability index has been recorded for ARKYFERLAGGGWTLRRTKELRKD [P9A] ?
# output 2.83

# input May I ask what protein stability index has been recorded for ARKYFERLPYGGWTLRRTKELRKD [G10Y] ?
# output 2.35

# input May I ask what protein stability index has been recorded for HRKYFERLPGGGWTLRRTKELRKD [A1H] ?
# output 3.66

# input May I ask what protein stability index has been recorded for ARKYFERLPGGGWTLPRTKELRKD [R16P] ?
# output 3.73

# input May I ask what protein stability index has been recorded for ARKYFERLPGGGDTLRRTKELRKD [W13D] ?
# output 3.59

# input May I ask what protein stability index has been recorded for ARKYFERLPGGGWSLRRTKELRKD [T14S] ?
# output 3.34

# input May I ask what protein stability index has been recorded for ARMYFERLPGGGWTLRRTKELRKD [K3M] ?
# output 3.12

# input May I ask what protein stability index has been recorded for ARKYFERLPGGGWTRRRTKELRKD [L15R] ?
# output 3.34

# input May I ask what protein stability index has been recorded for ARYYFERLPGGGWTLRRTKELRKD [K3Y] ?
# output 2.58

# input May I ask what protein stability index has been recorded for ARKYFERLPGGGWTLRRTKEWRKD [L21W] ?
# output 3.76
